# Tested on: wild-type PLC/PRF/5 hepatocellular carcinoma cells
# Assay Comment: Anti-proliferative IC50 assay, wild-type PLC/PRF/5
# Format: cell-based, human
# Assay Context: Homo sapiens, PLC-PRF-5; with 3 μM SN34037; read-out: PLC/PRF/5-WT +AKR1C3 Inhibitor Anti-proliferative IC50
pIC50: −log10 of the molar value.
Label t when pIC50 >= 4; otherwise f.

Illustrative cases are given below, each with its answer.
Molecule: CN1CCN(C(=O)c2cc([N+](=O)[O-])ccc2N(CCBr)CCOS(C)(=O)=O)CC1 [SN34454, reference compound]
Assigned Category: f
//
Molecule: CN1CCN(S(=O)(=O)c2cc([N+](=O)[O-])ccc2N(CCBr)CCBr)CC1
Assigned Category: t
//
Molecule: CN1CCN(S(=O)(=O)c2cc([N+](=O)[O-])ccc2N(CCBr)CCOS(C)(=O)=O)CC1
Assigned Category: t
//
Molecule: CN1CCN(S(=O)(=O)c2cc([N+](=O)[O-])ccc2N(CCOS(C)(=O)=O)CCOS(C)(=O)=O)CC1
Assigned Category: t
//
Molecule: CS(=O)(=O)OCCN(CCBr)c1c(C(=O)NCCO)cc([N+](=O)[O-])cc1[N+](=O)[O-] [PR-104A, reference compound]
Assigned Category: f
//
Molecule: CN1CCN(C(=O)c2cc([N+](=O)[O-])ccc2N(CCBr)CCBr)CC1 [SN34118, reference compound]
Assigned Category: f

Now examine the next entry.
Task: Could you please find out whether CN1CCN(C(=O)c2cc([N+](=O)[O-])cc([N+](=O)[O-])c2N(CCBr)CCOS(C)(=O)=O)CC1 [SN33540, reference compound] has pIC50 that meets 4 or exceeds it?
Result: f

###

# Tested on: wild-type H460 lung cancer cells
# Assay Comment: Anti-proliferative IC50 assay, wild-type H460
# Assay type: cell-based, human
# Assay Context: Homo sapiens, NCI-H460, read-out: H460-WT Anti-proliferative IC50
Measured Endpoint: IC50 (nM)
Provide only the numeric value, understood in nM.

Known results for molecules:
Molecule: CN1CCN(C(=O)c2cc([N+](=O)[O-])ccc2N(CCBr)CCBr)CC1 [SN34118, reference compound]
Data Value: 1560
//
Molecule: CS(=O)(=O)OCCN(CCBr)c1ccc([N+](=O)[O-])cc1S(=O)(=O)N1CCN(CC(O)CO)CC1 (stereo not drawn)
Data Value: 25

Task: Would you mind telling me what IC50 value was observed for CCN1CCN(S(=O)(=O)c2cc([N+](=O)[O-])ccc2N(CCOS(C)(=O)=O)CCOS(C)(=O)=O)CC1 ?
Result: 1

Task: Would you mind telling me what IC50 value was observed for CS(=O)(=O)OCCN(CCBr)c1c(C(=O)NCCO)cc([N+](=O)[O-])cc1[N+](=O)[O-] [PR-104A, reference compound] ?
Result: 2700

Task: Would you mind telling me what IC50 value was observed for O=[N+]([O-])c1ccc(N(CCBr)CCBr)c(S(=O)(=O)N2CCN(CC(O)CO)CC2)c1 (stereo not drawn) ?
Result: 4

Task: Would you mind telling me what IC50 value was observed for CN1CCN(S(=O)(=O)c2cc([N+](=O)[O-])ccc2N(CCBr)CCBr)CC1 ?
Result: 19

###

Parameter pIC50: see the listing below.
# System: SNU398 hepatocellular carcinoma cells engineered to over-express AKR1C3
# Assay Comment: Anti-proliferative IC50 assay, SNU398 over-expressing AKR1C3
# Assay type: cell-based, human
# Assay Context: Homo sapiens, SNU-398, read-out: SNU398-AKR1C3 Anti-proliferative IC50
Would you please state pIC50, meaning minus log10 of the concentration in mol/L, as a bare number?

Known results for molecules:
Molecule: CCN1CCN(S(=O)(=O)c2cc([N+](=O)[O-])ccc2N(CCOS(C)(=O)=O)CCOS(C)(=O)=O)CC1
System: SNU398 hepatocellular carcinoma cells engineered to over-express AKR1C3
pIC50: 8.70
--
Molecule: O=[N+]([O-])c1ccc(N(CCBr)CCBr)c(S(=O)(=O)N2CCN(CC(O)CO)CC2)c1 (centres unmarked)
System: SNU398 hepatocellular carcinoma cells engineered to over-express AKR1C3
pIC50: 7.96
--
Molecule: CN1CCN(S(=O)(=O)c2cc([N+](=O)[O-])ccc2N(CCBr)CCOS(C)(=O)=O)CC1
System: SNU398 hepatocellular carcinoma cells engineered to over-express AKR1C3
pIC50: 8.52
--
Molecule: CN1CCN(C(=O)c2cc([N+](=O)[O-])ccc2N(CCBr)CCOS(C)(=O)=O)CC1 [SN34454, reference compound]
System: SNU398 hepatocellular carcinoma cells engineered to over-express AKR1C3
pIC50: 6.82

// switching to the query molecule
Task: Would you mind telling me what pIC50 value was observed for CS(=O)(=O)OCCN(CCBr)c1c(C(=O)NCCO)cc([N+](=O)[O-])cc1[N+](=O)[O-] [PR-104A, reference compound] ?
Result: 5.94
